test: Oral bioavailability in dog at 3 mg/kg, po; type: ADME, organism-based, Canis lupus familiaris; settings: in vivo
Measured metric: bioavailability

[Q] Would you kindly share the measured bioavailability for O=C(/C=C1\CC(C(=O)[O-])Nc2cc(Cl)ccc21)Nc1ccccc1.[Na+] (stereo unspecified) ?
[A] 64%

----------
assay: Plasma clearance in dog at 1 mg/kg, iv or 3 mg/kg, po; format: ADME, organism-based, Canis lupus familiaris
Measured metric: clearance (mL/min/kg)
Give bare numbers, in mL/min/kg.

[Q] Suppose we examine the molecule O=C(/C=C1\CC(C(=O)[O-])Nc2cc(Cl)ccc21)Nc1ccccc1.[Na+] (stereo unspecified) ; what clearance value has been reported?
[A] 1.4
